Give IC50 for every item shown.
molecular target: human Syk (GST-Syk) (Homo sapiens); construct: A cDNA fragment encoding human Syk openreading frame was cloned; made in house; host or cells: Sf21 insect cells (baculovirus, transfer vector pAcG2T); test: Syk tyrosine kinase inhibitory assay; assay type: biochemical; settings: Table 17; IC50 classes; read-out: Activity grade

INSERT INTO results (compound, target_or_system, reported_measurement) VALUES
  ('COc1ccc(-c2cc3nccn3c(N(C(C)=O)c3ccccc3)n2)cc1OC(C)=O [Example 10]', 'human Syk (GST-Syk) (Homo sapiens)', '2000 to 10000 nM');

Would you be so kind as to report IC50 for each listed record?
1. COc1ccc(-c2cc3nccn3c(Nc3ccc(CC(N)C(=O)OC(C)C)cc3)n2)cc1OC (centres unmarked) [Example 29]
2. COc1ccc(-c2cc3nccn3c(Sc3ccc(CCC(=O)N(C)C)cc3)n2)cc1OC [compound 17]
3. COc1ccc(-c2cc3nccn3c(Sc3ccc(CCC(=O)NCCC#N)cc3)n2)cc1OC [Example 23]
4. CNC(=O)CCc1ccc(Sc2nc(-c3ccc(OC)c(OC)c3)cc3nccn23)cc1 [Example 21]
5. COc1ccc(-c2cc3nccn3c(Nc3ccc(CC(N)C(=O)O)cc3)n2)cc1OC (centres unmarked) [Example 30]
6. COc1ccc(-c2cc3nccn3c(N(C)c3ccncc3)n2)cc1OC [Example 36]
7. COc1ccc(-c2cc3nccn3c(Nc3cc(N)ccc3C(N)=O)n2)cc1OC [Example 11]
8. CCN(CC)CCNc1ccc(C(N)=O)c(Nc2nc(-c3ccc(OC)c(OC)c3)cc3nccn23)c1 [Example 12]

Key:
1: < 500 nM; 2: < 500 nM; 3: < 500 nM; 4: < 500 nM; 5: < 500 nM; 6: 2000 to 10000 nM; 7: < 500 nM; 8: < 500 nM

Go through the list and state IC50 for each entry.
1. CCSc1nc(-c2ccc(OC)c([N+](=O)[O-])c2)cc2nccn12 [Example 27]
2. COc1ccc(-c2cc3nccn3c(Nc3ccc(N(C)C)cc3C(N)=O)n2)cc1OC [Example 32]
3. COc1ccc(-c2cc3nccn3c(N(C)c3ccccn3)n2)cc1OC [compound 4]
4. COc1ccc(-c2cc3nccn3c(SCC(=O)O)n2)cc1OC [Example 26]

Key:
< 500 nM
< 500 nM
2000 to 10000 nM
2000 to 10000 nM

Each compound below has a reported value. Please supply its IC50.
1. COc1ccc(-c2cc3nccn3c(-c3ccccc3)n2)cc1OC [Example 34]
2. COc1ccc(-c2cc3nccn3c(Nc3ccc(C(=O)NCCCO)cc3)n2)cc1OC [Example 7]

Key:
1: 500 to 2000 nM; 2: < 500 nM

The following compounds each have a reported value; give each one's IC50.
1. COc1ccc(-c2cc3nccn3c(Nc3ccccc3)n2)cc1NC(=O)CCC(=O)O [Example 2]
2. COc1ccc(-c2cc3nccn3c(Nc3cc(N(C)C)ccc3C(N)=O)n2)cc1OC [Example 13]

Key:
["< 500 nM", "< 500 nM"]

###

Assignment: determine reported pIC50 for the given compounds.
molecular target: human Syk (GST-Syk) (Homo sapiens); construct: A cDNA fragment encoding human Syk openreading frame was cloned; made in house; host or cells: Sf21 insect cells (baculovirus, transfer vector pAcG2T); assay: Syk tyrosine kinase inhibitory assay; assay type: biochemical; settings: in vitro; compounds as yielded by solid phase synthesis, purity about 40 to 90%; read-out: Activity grade (IC50 class)
pIC50: −log10 of the molar value.

Known results for compounds:
INSERT INTO results (compound, reported_measurement) VALUES
  ('CCSc1nc(-c2cccc(N)c2)cc2nccn12', '> 6.30'),
  ('CCSc1nc(-c2ccc(OC)c(OCC3CCCCO3)c2)cc2nccn12 (centres unmarked)', '5.70 to 6.30'),
  ('CCNC(=O)Oc1cc(-c2cc3nccn3c(SCC)n2)ccc1OC', '> 6.30'),
  ('CCOCCOc1ccc(-c2cc3nccn3c(SCC)n2)cc1OCCOCC', '5.70 to 6.30');

Note: attention shifts to another entry.
Exercise: May I ask what pIC50 has been recorded for COc1ccccc1Nc1nc(-c2ccc(OC)c(OC)c2)cc2nccn12 ?
Key: > 6.30

Values compiled from patent US6911443B2.
